Recorded values, source patent US20250296995A1.

biological target: T1, recombinant Plasmodium falciparum circumsporozoite protein (CSP) (Plasmodium falciparum, UniProt Q7K740 21-375); test: SPR, recombinant CSP
T1 construct: also called recombinant CSP
T1 sequence (Q7K740 21-375 limits assumed): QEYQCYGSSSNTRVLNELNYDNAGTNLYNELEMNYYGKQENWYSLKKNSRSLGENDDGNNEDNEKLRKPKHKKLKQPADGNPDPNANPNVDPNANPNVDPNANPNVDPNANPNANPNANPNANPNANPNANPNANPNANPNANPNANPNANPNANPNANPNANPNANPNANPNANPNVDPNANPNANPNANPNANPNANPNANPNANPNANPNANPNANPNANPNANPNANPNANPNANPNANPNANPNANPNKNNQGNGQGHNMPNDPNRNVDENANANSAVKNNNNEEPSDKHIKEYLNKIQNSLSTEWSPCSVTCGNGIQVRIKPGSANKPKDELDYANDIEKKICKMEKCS
This listing pairs binders with measured kon.

Binder	kon / M⁻¹ s⁻¹
AB-000356 LS (antibody, V domains shown) VH: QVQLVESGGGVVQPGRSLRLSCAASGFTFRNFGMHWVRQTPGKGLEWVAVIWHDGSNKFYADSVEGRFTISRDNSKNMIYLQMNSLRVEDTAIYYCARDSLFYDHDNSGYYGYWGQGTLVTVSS VL: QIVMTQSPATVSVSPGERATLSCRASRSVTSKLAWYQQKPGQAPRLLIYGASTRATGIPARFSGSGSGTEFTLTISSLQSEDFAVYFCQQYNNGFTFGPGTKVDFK	436000
AB-000391 (antibody, V domains shown) VH: EVQLVQSGGGLVQPGGSLRLSCVASGFTLSSYEMNWVRQAPGKGLEWVSFISSSGSKKRYADSVKGRFTVSRDNAKNSLSLQMNSLRAEDTAVYYCARDHSTSDREYGLDVWGQGATVTVSS VL: DVVMTQSPLSLPVTLGQPASISCRSGQSLLYSDGNTYLYWFQQRPGQSPRRLIYKVSNRDPGVPERFSGSGSGTDFTLKISRVEAEDVGIYFCLQGTHWPYTFGRGTKLEIK	869000
